# ASSAYED_TARGET: His-tagged KRAS G12D protein (Homo sapiens (Human), UniProt P01116, G12D)
# Sequence (P01116 other isoform, or with tags, fused parts or gaps G12D): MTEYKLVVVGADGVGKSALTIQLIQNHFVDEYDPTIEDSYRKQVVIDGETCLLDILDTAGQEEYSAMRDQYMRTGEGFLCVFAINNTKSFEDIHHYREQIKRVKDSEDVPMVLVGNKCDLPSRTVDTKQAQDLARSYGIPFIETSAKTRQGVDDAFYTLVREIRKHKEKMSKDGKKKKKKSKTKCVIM
# MEASUREMENT_NOTES: KRAS G12D TR-FRET Assay
# Type: binding
# PROTOCOL_CONDITIONS: read-out: KRAS G12D Binding IC50
MEASURED_ENDPOINT: log10 of IC50 (log10 of the value in nM)
Values reflect log10 of reported IC50 (nM).

[in] Fill in the blank: the reported log10 of IC50 of Fc1c2ncc3c(nc(OC[C@@]45CCCN4C[C@H](F)C5)nc13)N1CCOC(C1)c1cnn(n1)CCCc1c(Cl)cc3[nH]ncc3c1-2 (stereo partly drawn) [Example 294] is ____.
[out] 1.30

[in] Thanks! And O=C1COCCCc2c(Cl)cc3[nH]ncc3c2-c2ncc3c(nc(OC[C@@]45CCCN4C[C@H](F)C5)nc3c2F)N2CCC[C@H](C2)O1 [Example 37, bis(2,2,2-trifluoroacetate)] ?
[out] 0.70

[in] Thanks! And Cc1cc2[nH]ncc2c2c1C[C@@H](C)CCOC[C@@H]1CCCN(C1)c1nc(OC[C@@]34CCCN3C[C@H](F)C4)nc3c(F)c-2ncc13 [Example 250] ?
[out] 1.11

[in] Thanks! And O=C1OCCCc2c(Cl)cc3[nH]ncc3c2-c2ncc3c(nc(OC[C@@]45CCCN4C[C@H](F)C5)nc3c2F)N2CCCC[C@H](C2)O1 [Example 100] ?
[out] 0.30
